Test system: OATA L57A/W58A
Format: biochemical
Can you tell me Relative activity, OATA L57A/W58A for the items I'm about to list?
// note: answer is a bare numeric in %

Inquiry: Report the value of Relative activity, OATA L57A/W58A obtained on OATA L57A/W58A for `CCCC(=O)C(=O)O` .
Reply text: 103

Inquiry: Using OATA L57A/W58A as the test system, report measured Relative activity, OATA L57A/W58A of `CCC(=O)C(=O)O` .
Reply text: 290

Inquiry: Print OATA L57A/W58A Relative activity, OATA L57A/W58A for `CCCCC(=O)C(=O)O` .
Reply text: 49

Inquiry: Find Relative activity, OATA L57A/W58A for CC(=O)C(=O)O [pyruvate, pyruvic acid] on OATA L57A/W58A and write it down.
Reply text: 707

Inquiry: Report Relative activity, OATA L57A/W58A from OATA L57A/W58A testing of `CCCCCCC(=O)C(=O)O`
Reply text: 7
